test system: Wild type; experiment: S. aureus survival, RN4220 and DeltatarO strains – OD600, teichoic acid synthesis inhibitors, primary screen (AID 463173); details: S. aureus RN4220 wild type/DeltatarO growth, OD600, 18 h, hits give low values, screened at 18.75 µg/mL (by protocol)
In all, about 52,000 compounds went through this assay and about 1,700 (3.3%) were called active. The sample as a whole holds a higher share of actives than the screen did.
# note: boundary value 70% maps to class 0; survival below it maps to class 1

Use the examples below as a reference point.
CCOC(=O)C1CCN(c2nc3ccccc3nc2Cl)CC1: class 1
CCOC(=O)C1CCN(c2nc(-c3ccc(Br)cc3)nc3ccccc23)CC1: class 0
CC1CCN(c2ncnc3c2nnn3C)CC1: class 0
CCOC(=O)C1CCN(c2ncnc3c2nnn3C)CC1: class 1

Pending compound:
Prompt: Consider Cc1cc(C)c(NC(=O)CSc2ccnc(=O)[nH]2)c(C)c1 . Does its survival lie strictly below 70%?
Response: class 0
